Origin of the recorded values: the supplement of paper PMC10567573

assay: protein stability index of a GFP-peptide fusion (GPS, HEK-293T) (PSI 1-6); higher = more stable; conditions: treatment: MLN4924 1 uM, 8 h; c terminus: a fixed tail appended;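 further: 24-mer peptide tiles fused after GFP, lentivirally expressed, FACS-sorted into six equal bins by GFP/DsRed ratio, decoded by Illumina sequencing, PSI is the read-weighted mean bin number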
Below: a set of entries, each annotated with reported protein stability index.
Response field accepts a number only; no unit should be typed.

Example sequences with recorded protein stability index:
[
  {
    "Sequence code": "RRSSSKCIHDHHCGSQLSSTKGSR [NETO1]",
    "protein stability index": 3.92
  },
  {
    "Sequence code": "EKAFIAHFQDNLHSVNRDLNELER [MED27]",
    "protein stability index": 4.09
  },
  {
    "Sequence code": "EPIILPCSHNLCQACARNILVQTP [TRIM9]",
    "protein stability index": 2.68
  },
  {
    "Sequence code": "PSAALTTMQLFSKQNPSRQEVTKL [FBXO28]",
    "protein stability index": 4.37
  },
  {
    "Sequence code": "MGETKIIYHLDGQETPYLVKLPLP [DVL3]",
    "protein stability index": 2.3
  },
  {
    "Sequence code": "YYTMDPTQHVNNWMKHNVADSQIT [PTPRD]",
    "protein stability index": 2.93
  },
  {
    "Sequence code": "ELPNGSVKEAPAPTPTSLEVSSPP [PDZK1]",
    "protein stability index": 5.09
  },
  {
    "Sequence code": "TRGDADMYDLPKKEDALLYQSKGY [EMD]",
    "protein stability index": 4.38
  },
  {
    "Sequence code": "NVEAQLSEIRCDLERQNQEYQVLL [KRT36]",
    "protein stability index": 3.53
  },
  {
    "Sequence code": "LNPGFQDATLSLKQTILDKEEKQR [TTC32]",
    "protein stability index": 4.98
  }
]

// query protein stability index value for entry GMSYLYASWMYQLQHGDQLSICFT [TEX19]
2.92

// query protein stability index value for entry GHLSKDVDENDSHEGEDQFLSLEA [DLC1]
5.54
